What pIC50 was measured for each of the following?
# system-tested: BACE enzyme (Homo sapiens, UniProt P56817)
# Construct: the catalytic domain, appended by a C-terminal poly-histidine tag, is secreted out into the cellular medium
# Sequence (P56817 75-416 limits assumed): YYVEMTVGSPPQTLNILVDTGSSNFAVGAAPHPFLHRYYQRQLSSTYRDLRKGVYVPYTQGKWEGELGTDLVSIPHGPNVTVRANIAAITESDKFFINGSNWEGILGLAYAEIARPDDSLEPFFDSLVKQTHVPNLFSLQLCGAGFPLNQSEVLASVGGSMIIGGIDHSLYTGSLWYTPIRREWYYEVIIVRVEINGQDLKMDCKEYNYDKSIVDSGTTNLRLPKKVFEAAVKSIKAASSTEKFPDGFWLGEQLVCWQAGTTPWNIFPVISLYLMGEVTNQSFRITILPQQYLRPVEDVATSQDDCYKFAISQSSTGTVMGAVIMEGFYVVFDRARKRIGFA
# method: BACE enzyme inhibition, fluorescence-quenched peptide substrate MCA-EVNLDAEFK(DNP)
# run-conditions: 50 mM acetate, pH 4.5, 0.25 mg/ml bovine serum albumin, 2.5% DMSO; read-out: Activity Rating (based on IC50 values)
pIC50: −log10 of the molar value.

Q: Answer with the recorded pIC50 for the compound listed here: CCC(C)[C@@]1(NC(=O)CCc2cnc[nH]2)CCN([C@@H](CCc2ccccc2)C(=O)N[C@@H](Cc2ccccc2)[C@@H](O)CNCc2cccc(OC)c2)C1=O (single isomer, unassigned)
Result: 6.00 to 7.00

Q: Answer with the recorded pIC50 for the compound listed here: "CC[C@H](C)[C@@]1(NC(C)=O)CCN([C@@H](CCc2ccccc2)C(=O)N[C@@H](Cc2ccccc2)[C@H](O)CNCC2CC2)C1=O"
Result: 6.00 to 7.00

Q: Answer with the recorded pIC50 for the compound listed here: CCC(C)[C@@]1(NC(=O)OC)CCN([C@@H](CCc2ccccc2)C(=O)N[C@@H](Cc2ccccc2)[C@@H](O)CNCc2cccc(OC)c2)C1=O (single isomer, unassigned)
Result: 4.30 to 6.00

Q: Answer with the recorded pIC50 for the compound listed here: CC(=O)NC1(CC(C)C)CCN([C@@H](CCc2ccccc2)C(=O)N[C@@H](Cc2ccccc2)[C@H](O)CNCC2CC2)C1=O (stereo in doubt)
Result: 6.00 to 7.00

Q: Answer with the recorded pIC50 for the compound listed here: "CC[C@H](C)[C@@]1(NC(=O)COC)CCN([C@@H](CCc2ccccc2)C(=O)N[C@@H](CC(C)C)[C@H](O)CNCc2cccc(OC)c2)C1=O"
Result: 4.30 to 6.00

Q: Answer with the recorded pIC50 for the compound listed here: "CC(=O)N[C@]1(CC(C)C)CCN([C@@H](CCc2ccccc2)C(=O)N[C@@H](Cc2ccccc2)[C@H](O)CNCc2ccccc2)C1=O"
Result: > 7.00

Q: Answer with the recorded pIC50 for the compound listed here: CCC(C)[C@@]1(NS(=O)(=O)CC)CCN([C@@H](CCc2ccccc2)C(=O)N[C@@H](Cc2ccccc2)C(O)CNCc2cccc(OC)c2)C1=O (some centres unmarked)
Result: 4.30 to 6.00

Q: Answer with the recorded pIC50 for the compound listed here: "CCCNC(=O)N[C@]1([C@@H](C)CC)CCN([C@@H](CCc2ccccc2)C(=O)N[C@@H](Cc2ccccc2)[C@H](O)CNCc2cccc(OC)c2)C1=O"
Result: 6.00 to 7.00

Q: Answer with the recorded pIC50 for the compound listed here: CCC(C)[C@@]1(NC(=O)CN)CCN([C@@H](CCc2ccccc2)C(=O)N[C@@H](Cc2ccccc2)[C@H](O)CNCc2cccc(OC)c2)C1=O (single isomer, unassigned)
Result: 6.00 to 7.00

Q: Answer with the recorded pIC50 for the compound listed here: "CC[C@H](C)[C@@]1(NC(=O)C(F)(F)F)CCN([C@@H](CCc2ccccc2)C(=O)N[C@@H](Cc2ccccc2)[C@H](O)CNCc2cccc(OC)c2)C1=O"
Result: 6.00 to 7.00

Q: Answer with the recorded pIC50 for the compound listed here: "CC[C@H](C)[C@@]1(NC(C)=O)CCN([C@@H](CCc2ccccc2)C(=O)N[C@@H](Cc2ccccc2)[C@H](O)CNCc2cccc(Cl)c2)C1=O"
Result: > 7.00

----------
# system-tested: BACE enzyme (Homo sapiens, UniProt P56817)
# Construct: the catalytic domain, appended by a C-terminal poly-histidine tag, is secreted out into the cellular medium
# method: BACE enzyme inhibition, fluorescence-quenched peptide substrate MCA-EVNLDAEFK(DNP)
# run-conditions: 50 mM acetate, pH 4.5, 0.25 mg/ml bovine serum albumin, 2.5% DMSO; read-out: Activity Rating (based on IC50 values)
value-kind: IC50

Q: Answer with the recorded IC50 for the molecule listed here: "COc1cccc(CNC[C@@H](O)[C@H](Cc2cc(F)cc(F)c2)NC(=O)[C@H](CCc2ccccc2)N2CC[C@](NC(C)=O)(C(C)C)C2=O)c1"
Result: < 100 nM

Q: Answer with the recorded IC50 for the molecule listed here: "CC[C@H](C)[C@@]1(NC(C)=O)CCN([C@@H](CCc2ccccc2)C(=O)N[C@@H](Cc2ccccc2)[C@H](O)CNCc2cccc(OC)c2)C1=O"
Result: < 100 nM

Q: Answer with the recorded IC50 for the molecule listed here: "CC[C@H](C)[C@@]1(NC(C)=O)CCN([C@@H](CCc2ccccc2)C(=O)N[C@@H](Cc2ccccc2F)[C@H](O)CNCc2cccc(OC)c2)C1=O"
Result: 100 to 1000 nM

----------
# system-tested: BACE enzyme (Homo sapiens)
# Construct: the catalytic domain, appended by a C-terminal poly-histidine tag, is secreted out into the cellular medium
# method: BACE enzyme inhibition, fluorescence-quenched peptide substrate MCA-EVNLDAEFK(DNP)
# run-conditions: 50 mM acetate, pH 4.5, 0.25 mg/ml bovine serum albumin, 2.5% DMSO; read-out: Activity Rating (based on IC50 values)
pIC50: −log10 of the molar value.
What pIC50 was measured for each of the following?

Q: Answer with the recorded pIC50 for the compound listed here: "CCC(=O)N[C@]1([C@@H](C)CC)CCN([C@@H](CCc2ccccc2)C(=O)N[C@@H](Cc2ccccc2)[C@H](O)CNCc2cccc(OC)c2)C1=O"
Result: > 7.00

Q: Answer with the recorded pIC50 for the compound listed here: CCCS(=O)(=O)N[C@]1(C(C)CC)CCN([C@@H](CCc2ccccc2)C(=O)N[C@@H](Cc2ccccc2)C(O)CNCc2cccc(OC)c2)C1=O (stereo partly drawn)
Result: 4.30 to 6.00

Q: Answer with the recorded pIC50 for the compound listed here: "COc1cccc(CNC[C@@H](O)[C@H](Cc2ccccc2)NC(=O)[C@H](CCc2ccccc2)N2CC[C@@](CC3CC3)(NC(C)=O)C2=O)c1"
Result: 4.30 to 6.00

----------
What pIC50 was measured for each of the following?
# system-tested: BACE enzyme (Homo sapiens, UniProt P56817)
# Construct: the catalytic domain, appended by a C-terminal poly-histidine tag, is secreted out into the cellular medium
# method: BACE enzyme inhibition, fluorescence-quenched peptide substrate MCA-EVNLDAEFK(DNP)
# run-conditions: 50 mM acetate, pH 4.5, 0.25 mg/ml bovine serum albumin, 2.5% DMSO; read-out: Activity Rating (based on IC50 values)
pIC50: −log10 of the molar value.

Q: Answer with the recorded pIC50 for the compound listed here: COc1cccc(CNC[C@@H](O)[C@H](Cc2cc(F)cc(F)c2)NC(=O)[C@H](CCc2ccccc2OC)N2CCC(CC3CC3)(NC(C)=O)C2=O)c1 (stereo in doubt) [Example 38]
Result: > 7.00

Q: Answer with the recorded pIC50 for the compound listed here: CCC(C)[C@@]1(NC(=O)OC)CCN([C@@H](CCc2ccccc2)C(=O)N[C@@H](Cc2ccccc2)[C@H](O)CNCc2cccc(OC)c2)C1=O (single isomer, unassigned) [Example 16]
Result: > 7.00

Q: Answer with the recorded pIC50 for the compound listed here: COc1cccc(CNC[C@@H](O)[C@H](Cc2ccccc2)NC(=O)[C@H](CCc2ccccc2)N2CC[C@](CC3CC3)(NC(C)=O)C2=O)c1 [Example 7]
Result: > 7.00

Q: Answer with the recorded pIC50 for the compound listed here: CCOC(=O)N[C@]1([C@@H](C)CC)CCN([C@@H](CCc2ccccc2)C(=O)N[C@@H](Cc2ccccc2)[C@@H](O)CNCc2cccc(OC)c2)C1=O [Example 13]
Result: 4.30 to 6.00

Q: Answer with the recorded pIC50 for the compound listed here: CCC(C)[C@@]1(NC(=O)CN)CCN([C@@H](CCc2ccccc2)C(=O)N[C@@H](Cc2ccccc2)[C@@H](O)CNCc2cccc(OC)c2)C1=O (single isomer, unassigned) [Example 23]
Result: 4.30 to 6.00

Q: Answer with the recorded pIC50 for the compound listed here: CC[C@H](C)[C@@]1(NC(=O)CCc2cnc[nH]2)CCN([C@@H](CCc2ccccc2)C(=O)N[C@@H](Cc2ccccc2)[C@H](O)CNCc2cccc(OC)c2)C1=O [Example 20]
Result: 6.00 to 7.00

Q: Answer with the recorded pIC50 for the compound listed here: COc1cccc(CNC[C@@H](O)[C@H](Cc2cc(F)cc(F)c2)NC(=O)[C@H](CCc2ccc3c(c2)OCO3)N2CC[C@@](CC3CC3)(NC(C)=O)C2=O)c1 [Example 39]
Result: > 7.00

Q: Answer with the recorded pIC50 for the compound listed here: COc1cccc(CNC[C@@H](O)[C@H](Cc2cc(F)cc(F)c2)NC(=O)[C@H](CCc2cccc(F)c2)N2CCC(CC3CC3)(NC(C)=O)C2=O)c1 (stereo in doubt) [Example 40]
Result: > 7.00

Q: Answer with the recorded pIC50 for the compound listed here: C#CCNC[C@@H](O)[C@H](Cc1ccccc1)NC(=O)[C@H](CCc1ccccc1)N1CC[C@](NC(C)=O)([C@@H](C)CC)C1=O [Example 30]
Result: > 7.00

Q: Answer with the recorded pIC50 for the compound listed here: CC[C@H](C)[C@@]1(NC(=O)[C@@H](N)CCC(=O)O)CCN([C@@H](CCc2ccccc2)C(=O)N[C@@H](Cc2ccccc2)[C@H](O)CNCc2cccc(OC)c2)C1=O [Example 8]
Result: > 7.00

Q: Answer with the recorded pIC50 for the compound listed here: CCC(=O)N[C@]1([C@@H](C)CC)CCN([C@@H](CCc2ccccc2)C(=O)N[C@@H](CC(C)C)[C@H](O)CNCc2cccc(OC)c2)C1=O [Example 4]
Result: 6.00 to 7.00

Q: Answer with the recorded pIC50 for the compound listed here: COc1cccc(CNC[C@@H](O)[C@H](Cc2cc(F)cc(F)c2)NC(=O)[C@H](CCc2ccc(F)cc2)N2CCC(CC3CC3)(NC(C)=O)C2=O)c1 (stereo in doubt) [Example 41]
Result: > 7.00

Q: Answer with the recorded pIC50 for the compound listed here: COc1cccc(CC[C@@H](C(=O)N[C@@H](Cc2cc(F)cc(F)c2)[C@H](O)CNCc2cccc(OC)c2)N2CCC(CC3CC3)(NC(C)=O)C2=O)c1 (stereo in doubt) [Example 42]
Result: > 7.00

Q: Answer with the recorded pIC50 for the compound listed here: CC[C@H](C)[C@@]1(NC(C)=O)CCN([C@@H](CCc2ccccc2)C(=O)N[C@@H](Cc2cc(F)cc(F)c2)[C@H](O)CNCc2cccc(OC)c2)C1=O [Example 2]
Result: > 7.00

Q: Answer with the recorded pIC50 for the compound listed here: COc1cccc(CNC[C@@H](O)[C@H](Cc2ccccc2)NC(=O)[C@H](CCc2ccccc2)N2CCC(CC(C)C)(NC(C)=O)C2=O)c1 (stereo in doubt) [Example 28]
Result: > 7.00

Q: Answer with the recorded pIC50 for the compound listed here: CC[C@H](C)[C@@]1(NC(C)=O)CCN([C@@H](CCc2ccccc2)C(=O)N[C@@H](Cc2ccccc2F)[C@H](O)CNCc2cccc(Cl)c2)C1=O [Example 12]
Result: 6.00 to 7.00

Q: Answer with the recorded pIC50 for the compound listed here: CC(=O)N[C@]1(CC(C)C)CCN([C@@H](CCc2ccccc2)C(=O)N[C@@H](Cc2ccccc2)[C@H](O)CNCCC#N)C1=O [Example 37]
Result: > 7.00

Q: Answer with the recorded pIC50 for the compound listed here: CC[C@H](C)[C@@]1(NC(=O)CCO)CCN([C@@H](CCc2ccccc2)C(=O)N[C@@H](Cc2ccccc2)[C@H](O)CNCc2cccc(OC)c2)C1=O [Example 24]
Result: > 7.00

Q: Answer with the recorded pIC50 for the compound listed here: CC[C@H](C)[C@@]1(NC(C)=O)CCN([C@@H](CCc2ccccc2)C(=O)N[C@@H](Cc2ccccc2)[C@H](O)CNCc2cc(F)cc(F)c2)C1=O [Example 33]
Result: > 7.00

Q: Answer with the recorded pIC50 for the compound listed here: CCOC(=O)N[C@]1(C(C)CC)CCN([C@@H](CCc2ccccc2)C(=O)N[C@@H](Cc2ccccc2)[C@H](O)CNCc2cccc(OC)c2)C1=O (single isomer, unassigned) [Example 14]
Result: > 7.00

Q: Answer with the recorded pIC50 for the compound listed here: CC[C@H](C)[C@@]1(NC(=O)CCCO)CCN([C@@H](CCc2ccccc2)C(=O)N[C@@H](Cc2ccccc2)[C@H](O)CNCc2cccc(OC)c2)C1=O [Example 25]
Result: > 7.00

Q: Answer with the recorded pIC50 for the compound listed here: CCNC(=O)N[C@]1([C@@H](C)CC)CCN([C@@H](CCc2ccccc2)C(=O)N[C@@H](Cc2ccccc2)[C@H](O)CNCc2cccc(OC)c2)C1=O [Example 18]
Result: > 7.00

Q: Answer with the recorded pIC50 for the compound listed here: CC[C@H](C)[C@@]1(NC(=O)COC)CCN([C@@H](CCc2ccccc2)C(=O)N[C@@H](Cc2ccccc2)[C@H](O)CNCc2cccc(OC)c2)C1=O [Example 9]
Result: > 7.00
